Numbers sourced from patent US20220235144A1.

# assayed-target: T1, hSIRPγD1 with histidine tag (human, UniProt Q9P1W8 31-149)
# T1 construct: also called first immunoglobulin-like domain of human SIRP Gamma; not shown: histidine tag
# T1 sequence (Q9P1W8 31-149): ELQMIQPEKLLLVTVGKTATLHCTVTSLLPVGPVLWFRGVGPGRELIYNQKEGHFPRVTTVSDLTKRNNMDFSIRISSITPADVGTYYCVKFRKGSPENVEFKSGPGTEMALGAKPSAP
# experiment-description: SPR (Biacore 3000), IgG captured on anti-human IgG, His-tagged D1 analyte
pKd: −log10 of the molar value.
Listed below: pKd values for each entry.

Completed entries (count: 6):
binder	pKd
Ab11_G2 (antibody, human IgG2, V domains shown, same antibody as Ab11_G4 except human IgG2 CH1, hinge, CH2 and CH3) VH: EVQLVESGGGLVKPGGSLRLSCAASGFTFSSYVMSWVRQTPGKGLEWVATISSGGTYTYYPDSVKGRFTLSRDNAKNSLYLQMNSLRAEDTAVYYCASQLTGSEFDYWGQGTTVTVSS VL: DIVITQSPASLAVSLGERATISCRASESVDSYGNSFMHWYQQKPGQPPKLLIYRASNLESGVPDRFSGSGSRTDFTLTINPLQAEDVATYYCHQSGDLPWTFGGGTKVEIKR	~5.51
Ab11_G4 (antibody, human IgG4 S228P, kappa, V domains shown, human IgG4 format) VH: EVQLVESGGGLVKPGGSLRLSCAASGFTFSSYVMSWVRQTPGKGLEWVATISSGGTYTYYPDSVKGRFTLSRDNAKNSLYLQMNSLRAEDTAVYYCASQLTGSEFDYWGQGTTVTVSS VL: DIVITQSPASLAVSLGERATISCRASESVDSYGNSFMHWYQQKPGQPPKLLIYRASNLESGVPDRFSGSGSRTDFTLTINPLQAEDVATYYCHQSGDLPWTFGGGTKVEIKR	~5.14
Ab8_G4 (antibody, human IgG4 S228P, kappa, V domains shown, human IgG4 format) VH: EVQLVESGGGLVKPGGSLRLSCAASGFTFSSYVMSWVRQTPGKGLEWVATISSGGTYTYYPESVKGRFTLSRDNAKNSLYLQMNSLRAEDTAVYYCASQLTGSEFDYWGQGTTVTVSS VL: DIVMTQSPASLAVSLGERATISCRASESVDSYGNSFMHWYQQKPGQPPKLLIYRASNLESGVPDRFSGSGSRTDFTLTINPLQAEDVATYYCHQSADLPWTFGGGTKVEIKR	~5.21
Ab1_G2 (antibody, human IgG2, V domains shown) VH: EVQLVESGGGLVKPGGSLRLSCAASGFTFSSYVMSWVRQTPGKGLEWVATISSGGTYTYYPSSVKGRFTLSRDNAKNSLYLQMNSLRAEDTAVYYCASSLTGSSFDYWGQGTTVTVSS VL: DIVLTQSPASLAVSLGERATISCRASESVDLYGTSFMHWYQQKPGQPPKLLIYRASNLESGVPDRFSGSGSRTDFTLTINPLQAEDVATYYCHQSSDELPWTFGGGTKVEIKR	6.77
Ab9_G2 (antibody, human IgG2, V domains shown, same antibody as Ab9_G4 except human IgG2 CH1, hinge, CH2 and CH3) VH: EVQLVESGGGLVKPGGSLRLSCAASGFTFSSYVMSWVRQTPGKGLEWVATISSGGTYTYYPNSVKGRFTLSRDNAKNSLYLQMNSLRAEDTAVYYCVSSMTGSSFDYWGQGTTVTVSS VL: DIVITQSPASLAVSLGERATISCRASESVDSYGNSFMHWYQQKPGQPPKLLIYRASNLESGVPDRFSGSGSRTDFTLTINPLQAEDVATYYCHQSSEQLPWTFGGGTKVEIKR	~6.34
Ab2_G4 (antibody, human IgG4 S228P, kappa, V domains shown, human IgG4 format) VH: EVQLVESGGGLVKPGGSLRLSCAASGFTFSSYVMSWVRQTPGKGLEWVATISSGGTYTYYPDSVKGRFTLSRDNAKNSLYLQMNSLRAEDTAVYYCASSVDGSAFDYWGQGTTVTVSS VL: DIVITQSPASLAVSLGERATISCRASESVDSYGMSFMHWYQQKPGQPPKLLIYRASNLESGVPDRFSGSGSRTDFTLTINPLQAEDVATYYCHQSSENLPWTFGGGTKVEIKR	~6.03

# return recorded pKd for input Ab9_G4 (antibody, human IgG4 S228P, kappa, V domains shown, human IgG4 format) VH: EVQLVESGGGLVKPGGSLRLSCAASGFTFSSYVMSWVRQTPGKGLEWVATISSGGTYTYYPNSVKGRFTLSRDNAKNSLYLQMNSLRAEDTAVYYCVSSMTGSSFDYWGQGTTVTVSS VL: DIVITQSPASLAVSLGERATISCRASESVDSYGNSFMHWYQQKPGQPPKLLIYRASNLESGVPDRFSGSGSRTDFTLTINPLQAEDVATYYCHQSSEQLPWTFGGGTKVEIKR ~6.21

Give a short answer stating reported pKd for Ab1_G4 (antibody, human IgG4 S228P, kappa, V domains shown, human IgG4 format, kappa light chain, made in EXPICHO cells) VH: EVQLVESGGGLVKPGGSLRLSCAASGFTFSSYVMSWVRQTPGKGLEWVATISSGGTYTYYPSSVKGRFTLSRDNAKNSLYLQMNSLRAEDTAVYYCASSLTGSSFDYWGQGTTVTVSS VL: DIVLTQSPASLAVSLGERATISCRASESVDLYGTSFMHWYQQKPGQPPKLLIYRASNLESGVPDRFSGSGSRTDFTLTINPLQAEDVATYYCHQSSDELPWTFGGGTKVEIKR . 6.61
